experiment: Half life in ICR-CD1 mouse plasma at 40 mg/kg, po; assay type: ADME, organism-based
Measurement Type: half-life (min)
Expressed in min, but write only the number.

## Input Name the reported half-life value associated with the molecule `CCCCCc1cc(/C=C2\N=C(c3ccc[nH]3)C=C2Oc2ccccc2)[nH]c1C.Cl`
## Output 385

* * *

experiment: Aqueous solubility of compound in PBS buffer at pH 7.4 incubated for 90 mins by UV-vis spectroscopic analysis; conditions: pH 7.4, 1.5 h
Measurement Type: solubility (µM)
Expressed in µM, but write only the number.

Reference set, count: 5
>>> df
                                test_smiles  endpoint_unit  measured
0  C1=C(OCc2ccccc2)/C(=C/NC2CCCCCC2)N=C1c1ccc[nH]1.Cl             µM      15.8
1  CCCOC1=CC(c2ccc[nH]2)=N/C1=C\NC1CCCCCC1.Cl             µM      77.7
2  CCOC1=CC(c2ccc[nH]2)=N/C1=C\NC12CC3CC(CC(C3)C1)C2.Cl             µM       115
3  C1=C(Oc2ccccc2)/C(=C/NC23CC4CC(CC(C4)C2)C3)N=C1c1ccc[nH]1.Cl             µM      7.88
4  CCCCCc1cc(/C=C2\N=C(c3ccc[nH]3)C=C2OCCC)[nH]c1C.Cl             µM      18.5

## Input Name the reported solubility value associated with the compound `CCCCCCCCCCCc1ccc(/C=C2\N=C(c3ccc[nH]3)C=C2Oc2ccccc2)[nH]1.Cl`
## Output 8.19

## Input Next record, please: `CCCOC1=CC(c2ccc[nH]2)=N/C1=C\NC12CC3CC(CC(C3)C1)C2.Cl`
## Output 52.2

## Input Next record, please: `CC(C)OC1=CC(c2ccc[nH]2)=N/C1=C\NC12CC3CC(CC(C3)C1)C2.Cl`
## Output 78

## Input Next record, please: `CCOC1=CC(c2ccc[nH]2)=N/C1=C\NC1CCCCCC1.Cl`
## Output 178

## Input Next record, please: `CC(C)OC1=CC(c2ccc[nH]2)=N/C1=C\NC1CCCCCC1.Cl`
## Output 157

## Input Next record, please: `C1=C(OCc2ccccc2)/C(=C/NC23CC4CC(CC(C4)C2)C3)N=C1c1ccc[nH]1.Cl`
## Output 5.91
